target: panel of 203 kinases (Homo sapiens, UniProt P15056); construct: purchased DiscoverX (KINOMEscan); assay: KINOMEscan competitive binding, whole panel; details: 10 µM, n=1; kinase BRAF; read-out: Percent inhibition BRAF
Sequence (P15056 whole entry): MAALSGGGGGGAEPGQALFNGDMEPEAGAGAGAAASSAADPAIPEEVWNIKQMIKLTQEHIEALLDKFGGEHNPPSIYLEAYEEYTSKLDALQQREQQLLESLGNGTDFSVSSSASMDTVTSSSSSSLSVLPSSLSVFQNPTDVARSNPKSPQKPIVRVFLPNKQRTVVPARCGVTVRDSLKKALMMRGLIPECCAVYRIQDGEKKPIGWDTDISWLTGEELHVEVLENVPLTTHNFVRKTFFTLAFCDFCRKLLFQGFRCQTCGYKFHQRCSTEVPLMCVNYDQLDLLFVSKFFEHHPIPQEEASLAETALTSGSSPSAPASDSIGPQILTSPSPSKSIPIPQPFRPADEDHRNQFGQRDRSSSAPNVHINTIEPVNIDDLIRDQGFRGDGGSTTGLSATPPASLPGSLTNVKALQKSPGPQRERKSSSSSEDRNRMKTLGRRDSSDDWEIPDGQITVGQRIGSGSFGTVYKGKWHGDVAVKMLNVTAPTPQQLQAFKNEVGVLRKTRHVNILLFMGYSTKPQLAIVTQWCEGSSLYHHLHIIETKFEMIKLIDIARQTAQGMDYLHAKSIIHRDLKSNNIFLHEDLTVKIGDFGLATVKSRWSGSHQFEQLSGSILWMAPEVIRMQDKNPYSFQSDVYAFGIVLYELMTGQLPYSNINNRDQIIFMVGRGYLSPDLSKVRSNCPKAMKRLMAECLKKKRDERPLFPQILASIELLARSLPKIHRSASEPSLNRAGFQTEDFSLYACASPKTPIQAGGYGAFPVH
The entries below come with measured inhibition at 10 µM values attached.

- Mol smiles: "c1ccc(COc2cccc(-c3ccnc4[nH]ccc34)c2)cc1"
  Unit text: "%"
  inhibition at 10 µM: 0
- Mol smiles: "Clc1ccc(Nc2ncc(-c3ccccc3)s2)cc1"
  Unit text: "%"
  inhibition at 10 µM: 0
- Mol smiles: "Nc1ncc2c(-c3ccncc3)c[nH]c2n1"
  Unit text: "%"
  inhibition at 10 µM: 0
- Mol smiles: "Fc1cccc(COc2ccc(Nc3ncnc4c3CN(CCN3CCOCC3)CC4)cc2Cl)c1"
  Unit text: "%"
  inhibition at 10 µM: 0
- Mol smiles: "C[C@@H](Oc1cc(-c2cnc3ccccn23)sc1C(N)=O)c1ccccc1Cl"
  Unit text: "%"
  inhibition at 10 µM: 0
- Mol smiles: "COc1ccc(Nc2nccc(-c3cnn4ncccc34)n2)cc1"
  Unit text: "%"
  inhibition at 10 µM: 99.6
- Mol smiles: "Cc1ccc(O)cc1N(C)c1ccnc(Nc2cccc(S(N)(=O)=O)c2)n1"
  Unit text: "%"
  inhibition at 10 µM: 0
- Mol smiles: "Cc1ccc(O)cc1Nc1ccnc(Nc2cccc(C(N)=O)c2)n1"
  Unit text: "%"
  inhibition at 10 µM: 0
- Mol smiles: "COc1cc(Nc2nccc(-c3sc(N)nc3-c3cccc(NC(=O)c4c(F)cccc4F)c3)n2)cc(OC)c1OC"
  Unit text: "%"
  inhibition at 10 µM: 100
- Mol smiles: "CN1CCN(c2ccc(Nc3nccc(-c4cnn5ncccc45)n3)cc2C#N)CC1"
  Unit text: "%"
  inhibition at 10 µM: 0

====

biological target: CSNK2A1 (Homo sapiens); construct: purchased DiscoverX (KINOMEscan); experiment: KINOMEscan competitive binding; conditions: 10 µM, n=1; kinase CSNK2A1; read-out: Percent inhibition CSNK2A1
Sequence (P68400 whole entry): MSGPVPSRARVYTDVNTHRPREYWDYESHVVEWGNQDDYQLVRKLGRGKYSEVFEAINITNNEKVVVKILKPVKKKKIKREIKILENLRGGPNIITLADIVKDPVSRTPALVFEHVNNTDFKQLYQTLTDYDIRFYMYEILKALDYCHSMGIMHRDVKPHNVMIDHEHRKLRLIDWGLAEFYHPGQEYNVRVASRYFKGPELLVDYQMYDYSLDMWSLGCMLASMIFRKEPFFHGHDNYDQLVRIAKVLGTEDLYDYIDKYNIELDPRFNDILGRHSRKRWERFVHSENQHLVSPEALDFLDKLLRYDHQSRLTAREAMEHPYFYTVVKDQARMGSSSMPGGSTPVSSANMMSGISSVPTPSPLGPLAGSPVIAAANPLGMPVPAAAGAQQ
Reported inhibition at 10 µM values are given for each entry in this list.

- Mol smiles: "Fc1cccc(COc2ccc(Nc3ncnc4c3CN(CCN3CCOCC3)CC4)cc2Cl)c1"
  inhibition at 10 µM, %: 0
- Mol smiles: "Clc1ccc(Nc2ncc(-c3ccccc3)s2)cc1"
  inhibition at 10 µM, %: 0
- Mol smiles: "CN1CCN(c2ccc(Nc3nccc(-c4cnn5ncccc45)n3)cc2C#N)CC1"
  inhibition at 10 µM, %: 100
- Mol smiles: "Cc1ccc(O)cc1N(C)c1ccnc(Nc2cccc(S(N)(=O)=O)c2)n1"
  inhibition at 10 µM, %: 0
- Mol smiles: "Cc1ccc(O)cc1Nc1ccnc(Nc2cccc(C(N)=O)c2)n1"
  inhibition at 10 µM, %: 0

====

Each item that follows carries a reported inhibition at 10 µM.
target: RAF1 (Homo sapiens, UniProt P04049); construct: purchased DiscoverX (KINOMEscan); experiment: KINOMEscan competitive binding; details: n=1, read-out: Percent inhibition, RAF1
Sequence (P04049 whole entry): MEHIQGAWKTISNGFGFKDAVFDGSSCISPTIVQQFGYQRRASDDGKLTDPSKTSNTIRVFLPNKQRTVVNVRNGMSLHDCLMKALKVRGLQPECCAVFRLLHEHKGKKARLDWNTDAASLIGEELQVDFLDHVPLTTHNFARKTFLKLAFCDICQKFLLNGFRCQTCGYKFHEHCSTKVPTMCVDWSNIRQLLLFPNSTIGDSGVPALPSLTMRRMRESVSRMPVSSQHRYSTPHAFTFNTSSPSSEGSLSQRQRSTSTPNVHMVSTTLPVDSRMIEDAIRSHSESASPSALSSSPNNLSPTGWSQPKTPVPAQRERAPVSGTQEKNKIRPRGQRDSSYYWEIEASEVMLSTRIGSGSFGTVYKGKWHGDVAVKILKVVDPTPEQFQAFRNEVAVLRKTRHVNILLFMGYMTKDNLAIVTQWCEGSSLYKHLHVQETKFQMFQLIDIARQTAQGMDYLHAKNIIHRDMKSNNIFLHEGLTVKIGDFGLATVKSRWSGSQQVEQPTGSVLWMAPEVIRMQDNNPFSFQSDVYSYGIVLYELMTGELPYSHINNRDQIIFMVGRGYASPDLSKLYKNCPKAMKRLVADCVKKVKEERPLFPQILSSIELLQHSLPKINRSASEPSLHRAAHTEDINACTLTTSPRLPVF

- Molecule: "Nc1ncc2c(-c3ccncc3)c[nH]c2n1 [Compound 11]"
  inhibition at 10 µM: "0%"
- Molecule: "COc1ccc(Nc2nccc(-c3cnn4ncccc34)n2)cc1 [Compound 2]"
  inhibition at 10 µM: "0%"
- Molecule: "COc1cc(Nc2nccc(-c3sc(N)nc3-c3cccc(NC(=O)c4c(F)cccc4F)c3)n2)cc(OC)c1OC [Compound 7]"
  inhibition at 10 µM: "100%"
- Molecule: "CN1CCN(c2ccc(Nc3nccc(-c4cnn5ncccc45)n3)cc2C#N)CC1 [Compound 1]"
  inhibition at 10 µM: "0%"
- Molecule: "C[C@@H](Oc1cc(-c2cnc3ccccn23)sc1C(N)=O)c1ccccc1Cl [Compound 8]"
  inhibition at 10 µM: "0%"
- Molecule: "Fc1cccc(COc2ccc(Nc3ncnc4c3CN(CCN3CCOCC3)CC4)cc2Cl)c1 [Compound 6]"
  inhibition at 10 µM: "0%"
- Molecule: "Clc1ccc(Nc2ncc(-c3ccccc3)s2)cc1 [Compound 10]"
  inhibition at 10 µM: "0%"
- Molecule: "c1ccc(COc2cccc(-c3ccnc4[nH]ccc34)c2)cc1 [Compound 9]"
  inhibition at 10 µM: "0%"
- Molecule: "Cc1ccc(O)cc1Nc1ccnc(Nc2cccc(C(N)=O)c2)n1 [Compound 3]"
  inhibition at 10 µM: "74.3%"
- Molecule: "Cc1ccc(O)cc1N(C)c1ccnc(Nc2cccc(S(N)(=O)=O)c2)n1 [Compound 4]"
  inhibition at 10 µM: "94.2%"

====

target: CSNK1E (Homo sapiens, UniProt P49674); construct: purchased DiscoverX (KINOMEscan); test: KINOMEscan competitive binding; settings: 10 µM, n=1; kinase CSNK1E; read-out: Percent inhibition CSNK1E
Sequence (P49674 whole entry): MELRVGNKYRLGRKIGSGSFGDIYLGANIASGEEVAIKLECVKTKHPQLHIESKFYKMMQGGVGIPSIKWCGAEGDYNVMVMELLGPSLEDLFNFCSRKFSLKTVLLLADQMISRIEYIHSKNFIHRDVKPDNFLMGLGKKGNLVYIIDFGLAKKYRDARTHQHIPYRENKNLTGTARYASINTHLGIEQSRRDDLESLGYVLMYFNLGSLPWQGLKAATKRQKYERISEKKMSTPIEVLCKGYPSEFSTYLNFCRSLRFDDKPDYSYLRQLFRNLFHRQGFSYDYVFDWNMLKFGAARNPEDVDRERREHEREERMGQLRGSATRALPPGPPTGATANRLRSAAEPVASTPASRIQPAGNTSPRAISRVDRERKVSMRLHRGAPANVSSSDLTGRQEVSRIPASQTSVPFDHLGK
Measured metric: inhibition at 10 µM (%)

- Mol smiles: "Fc1cccc(COc2ccc(Nc3ncnc4c3CN(CCN3CCOCC3)CC4)cc2Cl)c1"
  Measured metric: "inhibition at 10 µM"
  Unit text: "%"
  Test result: 0
- Mol smiles: "CN1CCN(c2ccc(Nc3nccc(-c4cnn5ncccc45)n3)cc2C#N)CC1"
  Measured metric: "inhibition at 10 µM"
  Unit text: "%"
  Test result: 100
- Mol smiles: "Clc1ccc(Nc2ncc(-c3ccccc3)s2)cc1"
  Measured metric: "inhibition at 10 µM"
  Unit text: "%"
  Test result: 0
- Mol smiles: "Cc1ccc(O)cc1Nc1ccnc(Nc2cccc(C(N)=O)c2)n1"
  Measured metric: "inhibition at 10 µM"
  Unit text: "%"
  Test result: 100
- Mol smiles: "Cc1ccc(O)cc1N(C)c1ccnc(Nc2cccc(S(N)(=O)=O)c2)n1"
  Measured metric: "inhibition at 10 µM"
  Unit text: "%"
  Test result: 100
- Mol smiles: "Nc1ncc2c(-c3ccncc3)c[nH]c2n1"
  Measured metric: "inhibition at 10 µM"
  Unit text: "%"
  Test result: 100
- Mol smiles: "c1ccc(COc2cccc(-c3ccnc4[nH]ccc34)c2)cc1"
  Measured metric: "inhibition at 10 µM"
  Unit text: "%"
  Test result: 0
- Mol smiles: "C[C@@H](Oc1cc(-c2cnc3ccccn23)sc1C(N)=O)c1ccccc1Cl"
  Measured metric: "inhibition at 10 µM"
  Unit text: "%"
  Test result: 71.7
- Mol smiles: "COc1cc(Nc2nccc(-c3sc(N)nc3-c3cccc(NC(=O)c4c(F)cccc4F)c3)n2)cc(OC)c1OC"
  Measured metric: "inhibition at 10 µM"
  Unit text: "%"
  Test result: 99.9
- Mol smiles: "COc1ccc(Nc2nccc(-c3cnn4ncccc34)n2)cc1"
  Measured metric: "inhibition at 10 µM"
  Unit text: "%"
  Test result: 100

====

Reported values of inhibition at 10 µM for individual entries
biological target: panel of 203 kinases (Homo sapiens, UniProt Q13705); construct: purchased DiscoverX (KINOMEscan); test: KINOMEscan competitive binding, whole panel; details: 10 µM, n=1; kinase ACVR2B; read-out: Percent inhibition ACVR2B
Sequence (Q13705 19-512): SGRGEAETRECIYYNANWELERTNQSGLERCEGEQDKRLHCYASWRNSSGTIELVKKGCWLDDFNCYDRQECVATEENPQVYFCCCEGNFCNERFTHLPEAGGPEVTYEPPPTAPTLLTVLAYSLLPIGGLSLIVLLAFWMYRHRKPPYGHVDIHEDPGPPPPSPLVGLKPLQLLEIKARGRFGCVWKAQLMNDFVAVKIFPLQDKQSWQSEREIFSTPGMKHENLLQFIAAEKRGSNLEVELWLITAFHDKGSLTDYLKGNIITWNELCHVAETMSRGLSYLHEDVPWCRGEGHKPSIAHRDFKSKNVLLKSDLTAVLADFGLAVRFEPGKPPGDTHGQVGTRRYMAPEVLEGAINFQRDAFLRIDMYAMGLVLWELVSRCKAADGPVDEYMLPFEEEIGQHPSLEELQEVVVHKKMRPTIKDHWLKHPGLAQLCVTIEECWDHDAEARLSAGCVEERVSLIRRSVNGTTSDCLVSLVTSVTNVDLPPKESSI

- Molecule: "Nc1ncc2c(-c3ccncc3)c[nH]c2n1 [Compound 11]"
  Unit text: "%"
  inhibition at 10 µM: 65.7
- Molecule: "CN1CCN(c2ccc(Nc3nccc(-c4cnn5ncccc45)n3)cc2C#N)CC1 [Compound 1]"
  Unit text: "%"
  inhibition at 10 µM: 0
- Molecule: "COc1ccc(Nc2nccc(-c3cnn4ncccc34)n2)cc1 [Compound 2]"
  Unit text: "%"
  inhibition at 10 µM: 80.3
- Molecule: "Cc1ccc(O)cc1Nc1ccnc(Nc2cccc(C(N)=O)c2)n1 [Compound 3]"
  Unit text: "%"
  inhibition at 10 µM: 100
- Molecule: "c1ccc(COc2cccc(-c3ccnc4[nH]ccc34)c2)cc1 [Compound 9]"
  Unit text: "%"
  inhibition at 10 µM: 0
- Molecule: "Cc1ccc(O)cc1N(C)c1ccnc(Nc2cccc(S(N)(=O)=O)c2)n1 [Compound 4]"
  Unit text: "%"
  inhibition at 10 µM: 100
- Molecule: "C[C@@H](Oc1cc(-c2cnc3ccccn23)sc1C(N)=O)c1ccccc1Cl [Compound 8]"
  Unit text: "%"
  inhibition at 10 µM: 0
- Molecule: "Fc1cccc(COc2ccc(Nc3ncnc4c3CN(CCN3CCOCC3)CC4)cc2Cl)c1 [Compound 6]"
  Unit text: "%"
  inhibition at 10 µM: 0
- Molecule: "Clc1ccc(Nc2ncc(-c3ccccc3)s2)cc1 [Compound 10]"
  Unit text: "%"
  inhibition at 10 µM: 0
- Molecule: "COc1cc(Nc2nccc(-c3sc(N)nc3-c3cccc(NC(=O)c4c(F)cccc4F)c3)n2)cc(OC)c1OC [Compound 7]"
  Unit text: "%"
  inhibition at 10 µM: 97.5

====

target: panel of 203 kinases (Homo sapiens, UniProt Q96NX5); construct: purchased DiscoverX (KINOMEscan); experiment: KINOMEscan competitive binding, whole panel; conditions: 10 µM, n=1; kinase CAMK1G; read-out: Percent inhibition CAMK1G
Sequence (Q96NX5 whole entry): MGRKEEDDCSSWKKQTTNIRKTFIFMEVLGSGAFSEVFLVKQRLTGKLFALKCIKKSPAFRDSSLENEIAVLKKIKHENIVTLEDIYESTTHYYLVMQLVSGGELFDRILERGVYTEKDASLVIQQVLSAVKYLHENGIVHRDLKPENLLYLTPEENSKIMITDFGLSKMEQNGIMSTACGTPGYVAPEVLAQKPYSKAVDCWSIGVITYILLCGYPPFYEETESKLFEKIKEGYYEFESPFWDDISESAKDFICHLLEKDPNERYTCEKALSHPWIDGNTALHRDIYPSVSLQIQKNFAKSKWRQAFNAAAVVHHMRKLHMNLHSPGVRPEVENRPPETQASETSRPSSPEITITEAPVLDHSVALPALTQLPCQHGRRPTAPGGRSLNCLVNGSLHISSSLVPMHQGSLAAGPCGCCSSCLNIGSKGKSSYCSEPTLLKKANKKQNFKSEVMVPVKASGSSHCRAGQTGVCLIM
Measured metric: inhibition at 10 µM

- Mol smiles: "C[C@@H](Oc1cc(-c2cnc3ccccn23)sc1C(N)=O)c1ccccc1Cl"
  Measured metric: "inhibition at 10 µM"
  Test result: "0%"
- Mol smiles: "Cc1ccc(O)cc1Nc1ccnc(Nc2cccc(C(N)=O)c2)n1"
  Measured metric: "inhibition at 10 µM"
  Test result: "0%"
- Mol smiles: "Clc1ccc(Nc2ncc(-c3ccccc3)s2)cc1"
  Measured metric: "inhibition at 10 µM"
  Test result: "0%"
- Mol smiles: "Fc1cccc(COc2ccc(Nc3ncnc4c3CN(CCN3CCOCC3)CC4)cc2Cl)c1"
  Measured metric: "inhibition at 10 µM"
  Test result: "0%"
- Mol smiles: "CN1CCN(c2ccc(Nc3nccc(-c4cnn5ncccc45)n3)cc2C#N)CC1"
  Measured metric: "inhibition at 10 µM"
  Test result: "90.5%"
- Mol smiles: "COc1ccc(Nc2nccc(-c3cnn4ncccc34)n2)cc1"
  Measured metric: "inhibition at 10 µM"
  Test result: "71.5%"
- Mol smiles: "Cc1ccc(O)cc1N(C)c1ccnc(Nc2cccc(S(N)(=O)=O)c2)n1"
  Measured metric: "inhibition at 10 µM"
  Test result: "0%"
- Mol smiles: "COc1cc(Nc2nccc(-c3sc(N)nc3-c3cccc(NC(=O)c4c(F)cccc4F)c3)n2)cc(OC)c1OC"
  Measured metric: "inhibition at 10 µM"
  Test result: "69.4%"
- Mol smiles: "Nc1ncc2c(-c3ccncc3)c[nH]c2n1"
  Measured metric: "inhibition at 10 µM"
  Test result: "0%"
- Mol smiles: "c1ccc(COc2cccc(-c3ccnc4[nH]ccc34)c2)cc1"
  Measured metric: "inhibition at 10 µM"
  Test result: "0%"
